test system: NOMO1; assay: cell viability relative to DMSO control; higher = less cytotoxic; conditions: RPMI 5 mM glucose + 10% dialyzed FBS; 48 h; 0.19 µM
Property Measured: cell viability (%)
Response body: numeric value in %, unit text excluded.

| Compound | Property Measured | Unit Of Measurement | Result Value |
| --- | --- | --- | --- |
| Cc1ccc(C(C)(O)c2nc3ccccc3s2)c(C)c1 (stereo not drawn) | cell viability | % | 114 |

Q: Note cell viability for the compound shown: CCC1=C[C@@H]2CN(C1)Cc1c([nH]c3ccccc13)[C@@](C(=O)OC)(c1cc3c(cc1OC)N(C)[C@H]1[C@@](O)(C(=O)OC)[C@H](OC(C)=O)[C@]4(CC)C=CCN5CC[C@]31[C@@H]54)C2
A: 18.8

Q: Query cell viability for Clc1ccc(C2(c3ccc(-c4cn[nH]c4)cc3)CCNCC2)cc1
A: 103

Q: Fill in cell viability for record COc1cc(N2CCC(C(N)=O)CC2)ccc1Nc1nc(N)c(Cl)c(Nc2ccccc2[S+](=O)([O-])C(C)C)n1
A: 93.8

Q: Dear colleague, please send me the reported cell viability for COCCOC(=O)C/1=C(C)/NC/2=C(C1C3=CC=CC(=C3)O)/C(=O)CC(C2)C4=C(OC)C=CC=C4 (stereo not drawn) when you can.
A: 109

Q: Give me measured cell viability, please, for this compound: NC(=O)c1ccc(-c2nc(-c3ccc4c(c3)OCCO4)c(-c3ccccn3)[nH]2)cc1
A: 113

Q: Please report cell viability for the following compound: O=[N+]([O-])c1cn2c(n1)OC[C@@H](OCc1ccc(OC(F)(F)F)cc1)C2
A: 142

Q: State its cell viability for this compound: CN(C)CCOC(c1ccccc1)c1ccccc1
A: 111
